target.desc: EGFR (d746-750) (Homo sapiens (Human), UniProt P00533, DEL746-750)
Sequence (P00533 other isoform, or with tags, fused parts or gaps del 1-694/del 746-750 limits assumed): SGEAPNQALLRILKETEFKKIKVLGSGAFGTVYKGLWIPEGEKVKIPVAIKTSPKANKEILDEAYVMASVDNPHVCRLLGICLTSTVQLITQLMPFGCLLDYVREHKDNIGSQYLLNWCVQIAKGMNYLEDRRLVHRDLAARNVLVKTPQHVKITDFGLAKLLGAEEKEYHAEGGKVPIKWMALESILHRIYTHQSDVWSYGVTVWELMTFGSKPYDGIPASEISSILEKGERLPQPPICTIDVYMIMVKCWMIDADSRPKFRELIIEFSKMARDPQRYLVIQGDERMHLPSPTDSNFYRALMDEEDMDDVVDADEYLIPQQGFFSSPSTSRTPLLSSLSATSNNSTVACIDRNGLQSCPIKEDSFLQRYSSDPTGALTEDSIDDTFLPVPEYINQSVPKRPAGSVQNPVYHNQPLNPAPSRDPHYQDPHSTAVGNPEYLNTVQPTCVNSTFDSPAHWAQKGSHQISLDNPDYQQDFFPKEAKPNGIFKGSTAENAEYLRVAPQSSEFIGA
procedure.summary: Biochemical EGFR inhibition assay, EGFR (d746-750)
measurement.setup: Caliper mobility shift; 1.0 mM ATP or ATP Km; read-out: Enz EGFR_Exon19-del746-750 IC50
pIC50: −log10 of the molar value.
recorded.endpoint: pIC50

Here's what some known entries look like.
> print(dat)
                                    compound  recorded.endpoint  experimental.value
 1  COc1cc2ncnc(-c3cn(C)nc3-c3ccccc3)c2nc1NC(=O)[C@]1(C(F)(F)F)CCN(C)C1 (single isomer, unassigned)              pIC50                8.92
 2  CN1CC[C@@H](Oc2cc3c(-c4cn(C)nc4-c4ccccc4)ncnc3cc2OC(F)F)[C@H](F)C1              pIC50                7.68
 3  COc1cc2ncnc(-c3cn(C)nc3-c3ccccc3)c2nc1NC(=O)C1CC1              pIC50                9.00
 4  COc1cc2ncnc(-c3cn(C)nc3-c3ccccc3F)c2cc1NC(=O)c1ccc(C2CC2)nc1              pIC50                9.05
 5  COc1cc2ncnc(-c3cn(C)nc3-c3ccccc3)c2cc1NC(=O)C1CCN1 (centres unmarked)              pIC50                8.77
 6  COc1cc2ncnc(-c3cn(C)nc3-c3ccccc3)c2nc1NC(=O)[C@@]12CN(C)C[C@@H]1C2(F)F (single isomer, unassigned)              pIC50                9.10
 7  COc1cc2ncnc(-c3cn(C)nc3-c3ccc(F)cc3F)c2nc1NC(=O)[C@@]12C[C@@H]1CN(C)C2 (single isomer, unassigned)              pIC50                8.80
 8  COc1cc2ncnc(-c3cn(C)nc3-c3ccccc3)c2cc1OC(=O)N1[C@@H](C)CNC[C@@H]1C              pIC50                8.72
 9  COc1cc2ncnc(-c3cn(CC(F)F)nc3-c3ccccc3)c2cc1OCCCN1CCOCC1              pIC50                9.05
10  COc1cc2ncnc(-c3cn(CC(F)F)nc3-c3ccccc3)c2cc1N1CCOCC1              pIC50                9.00

[I] CCOc1cc2ncnc(-c3cn(CC)nc3-c3ccccc3)c2cc1[C@@H](C)O (single isomer, unassigned)
[II] CCCn1cc(-c2ncnc3cc(OC)c(NC(=O)c4ccc(C5CC5)nc4)cc23)c(-c2ccccc2)n1
Ask | Problem: Given the entries I and II , determine which has the lower reported pIC50. Choose, then provide that item's label.
Reply | II

[P] COc1cc2ncnc(-c3cn(C)nc3-c3ccccc3)c2nc1NC(=O)c1cnn(C(F)(F)F)c1
[Q] COc1cc2ncnc(-c3cn(C)nc3-c3ccccc3)c2cc1OC(=O)N1CCO[C@@H]2C[C@@H]21 (racemic)
Ask | Problem: Given the entries P and Q , determine which has the lower reported pIC50. Choose, then provide that item's label.
Reply | Q
